target: Insulin receptor-related protein (Homo sapiens) (UniProt P14616); conditions: at 0.1 µM;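 also: mean percent inhibition of IRR, reported within the GSK PKIS screening panel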
Sequence (P14616 27-742 limits assumed): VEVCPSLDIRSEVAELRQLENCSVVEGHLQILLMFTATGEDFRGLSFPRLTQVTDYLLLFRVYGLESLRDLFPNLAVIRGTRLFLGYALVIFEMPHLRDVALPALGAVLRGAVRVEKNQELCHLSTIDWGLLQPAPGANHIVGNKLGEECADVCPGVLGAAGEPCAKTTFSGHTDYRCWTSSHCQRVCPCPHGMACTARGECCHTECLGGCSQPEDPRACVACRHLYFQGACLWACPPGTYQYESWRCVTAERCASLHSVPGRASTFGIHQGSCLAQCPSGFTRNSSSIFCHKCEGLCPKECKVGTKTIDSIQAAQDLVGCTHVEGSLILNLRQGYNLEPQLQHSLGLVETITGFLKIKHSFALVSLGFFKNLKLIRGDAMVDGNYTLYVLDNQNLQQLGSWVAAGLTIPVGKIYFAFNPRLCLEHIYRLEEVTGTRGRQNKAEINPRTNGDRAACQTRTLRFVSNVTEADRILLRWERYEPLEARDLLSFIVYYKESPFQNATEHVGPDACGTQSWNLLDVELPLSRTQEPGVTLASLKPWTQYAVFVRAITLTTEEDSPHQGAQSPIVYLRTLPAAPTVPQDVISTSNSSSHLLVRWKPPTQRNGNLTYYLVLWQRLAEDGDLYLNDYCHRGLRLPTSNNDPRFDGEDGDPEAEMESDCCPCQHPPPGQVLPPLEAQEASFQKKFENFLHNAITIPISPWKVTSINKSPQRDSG
Sequence (P14616 747-1297 limits assumed): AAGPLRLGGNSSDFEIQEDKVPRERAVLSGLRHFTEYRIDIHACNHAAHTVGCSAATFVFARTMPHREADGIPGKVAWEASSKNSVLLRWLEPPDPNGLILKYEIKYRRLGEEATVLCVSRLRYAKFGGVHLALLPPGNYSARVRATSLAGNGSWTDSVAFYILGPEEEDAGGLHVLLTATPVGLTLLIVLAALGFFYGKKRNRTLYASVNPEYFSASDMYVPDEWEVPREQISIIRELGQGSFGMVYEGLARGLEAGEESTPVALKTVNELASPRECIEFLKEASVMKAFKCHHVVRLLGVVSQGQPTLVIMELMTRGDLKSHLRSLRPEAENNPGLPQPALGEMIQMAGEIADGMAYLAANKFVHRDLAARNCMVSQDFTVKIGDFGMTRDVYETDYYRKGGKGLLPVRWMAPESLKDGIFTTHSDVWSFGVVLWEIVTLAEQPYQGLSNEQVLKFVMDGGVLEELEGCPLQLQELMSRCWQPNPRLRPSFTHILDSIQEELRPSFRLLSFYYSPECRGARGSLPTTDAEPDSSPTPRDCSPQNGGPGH
parameterMeasured: inhibition (%)
Give bare numbers, in %.

The following compounds have reported results that may help.
>  <compound>
Cc1ccc(NC(=O)CC2CC2)cc1-c1ccc(C(=O)NCC2CC2)cc1

>  <inhibition / %>
2.99

$$$$
>  <compound>
Cc1cc(O)cc(C)c1/C=C/c1cncc(C(=O)N(C)C)c1

>  <inhibition / %>
2.71

$$$$
>  <compound>
Cc1ccc(Nc2ccnc(Nc3cccc(C(N)=O)c3)n2)cc1O

>  <inhibition / %>
2.88

$$$$
>  <compound>
Cc1ccc(C(=O)NC2CC2)cc1-c1ccc2[nH]ncc2c1

>  <inhibition / %>
-3.94

$$$$
>  <compound>
Cc1cc(Cl)cc2c1NC(=O)C2=NNc1ccc(S(N)(=O)=O)cc1

>  <inhibition / %>
-0.92

$$$$

// for each compound in input: emit inhibition
1. CCCN1CCCC(c2ccc(Nc3nc(Nc4cc(F)ccc4C(N)=O)c4cc[nH]c4n3)c(OC)c2)C1 (stereo not given)
2. Nc1nccc(C#Cc2cncnc2Nc2ccc(OCc3cccc(F)c3)c(Cl)c2)n1
3. CN1CCN(C(=O)c2ccc(NC(=O)Nc3ccc(N(C)c4ccnc(Nc5ccc(CS(C)(=O)=O)cc5)n4)cc3)cc2)CC1
4. ON=C1CCc2cc(-c3nc(C4CCNCC4)[nH]c3-c3ccncc3)ccc21

93.7
8.14
-0.19
-1.51

// for each compound in input: emit inhibition
1. Cc1ccc2c(c1)/C(=N/Nc1ccc(S(N)(=O)=O)cc1)C(=O)N2
2. NS(=O)(=O)c1ccc(NC=C2C(=O)Nc3ccc4ncsc4c32)cc1
3. Nc1nccc(-c2c(-c3ccc(F)cc3)nn3cc(C(F)(F)F)ccc23)n1
4. C[C@@H](Oc1cc(-n2cnc3ccc(OCC4CCN(C)CC4)cc32)sc1C(N)=O)c1ccccc1C(F)(F)F

-1.32
3.96
1.17
-3.02

====

What inhibition was measured for each of the following?
biological target: ALK tyrosine kinase receptor (Homo sapiens); conditions: at 0.1 µM
Description: GSK_PKIS: ALK mean inhibition at 0.1 uM [Nanosyn]
Numbers only, in %.

The following molecules have reported results that may help.
>  <structureNotation>
NS(=O)(=O)c1ccc(Nc2cc(-c3cccc(O)c3)n[nH]2)cc1

>  <measurementUnits>
%

>  <val>
3.58

$$$$
>  <structureNotation>
CN(C)C(=O)O[C@H]1CN[C@H](C#Cc2cc3ncnc(Nc4ccc(OCc5cccc(F)c5)c(Cl)c4)c3s2)C1

>  <measurementUnits>
%

>  <val>
2.82

$$$$
>  <structureNotation>
COc1cccc(-n2ncc3c(N/N=C/c4ccc(C)cc4)ncnc32)c1

>  <measurementUnits>
%

>  <val>
12.4

$$$$
>  <structureNotation>
COC(=O)c1ccc2c(c1)C(=Cc1cc(Br)c(O)c(Br)c1)C(=O)N2

>  <measurementUnits>
%

>  <val>
5.2

$$$$

Here's the next entry for you.
Which measured inhibition belongs to CCn1c(-c2nonc2N)nc2ccc(F)cc21 , tested on ALK tyrosine kinase receptor (Homo sapiens)?
5.2

====

biological target: Non-receptor tyrosine-protein kinase TNK1 (Homo sapiens); settings: at 0.1 µM;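 also: reported values are mean inhibition figures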
What inhibition was measured for each of the following?
Give bare numbers, in %.

>  <structureNotation>
NS(=O)(=O)c1ccc(-c2cc3ccncc3cc2OCc2ccccc2)cc1

>  <measurementUnits>
%

>  <inhibition>
3.48

$$$$
>  <structureNotation>
COc1ccc(-c2nn3ncccc3c2-c2ccnc(Nc3cccc(C(F)(F)F)c3)n2)cc1

>  <measurementUnits>
%

>  <inhibition>
7.47

$$$$
>  <structureNotation>
Cc1ccc2c(-c3ccnc(Nc4cccc(C(F)(F)F)c4)n3)c(-c3ccccc3)nn2n1

>  <measurementUnits>
%

>  <inhibition>
2.78

$$$$
>  <structureNotation>
CC(C)c1ccc2c(c1)NC(=O)/C2=N/Nc1ccc(S(N)(=O)=O)cc1

>  <measurementUnits>
%

>  <inhibition>
2.2

$$$$
>  <structureNotation>
NC(=O)c1sc(-n2cnc3ccccc32)cc1OCc1ccccc1Br

>  <measurementUnits>
%

>  <inhibition>
2.8

$$$$
>  <structureNotation>
CN(C)C(=O)O[C@@H]1CN[C@@H](C#Cc2cc3ncnc(Nc4ccc(OCc5cccc(F)c5)c(Cl)c4)c3s2)C1

>  <measurementUnits>
%

>  <inhibition>
0.44

$$$$

// for each compound in input: emit inhibition
1. CCS(=O)(=O)c1ccc(OC)c(Nc2ncc(-c3cccc(OC)c3)o2)c1
2. Cc1ccc(C(=O)NC2CC2)cc1-c1ccc2[nH]ncc2c1
3. CCOc1nccc2c1nc(-c1nonc1N)n2CC
4. COc1ccc2ncnc(Nc3ccc(OCc4ccccc4)cc3)c2c1
5. COc1cccc(-n2nc(C)c3c(N/N=C(\C)c4ccncc4)ncnc32)c1
6. CN(C)CCCn1c(-c2nonc2N)nc2cnccc21
7. COc1cccc(-n2ncc3c(N/N=C/c4ccc(S(C)(=O)=O)cc4)ncnc32)c1
8. Cc1cc(Cl)cc2c1NC(=O)C2=NNc1ccc(S(N)(=O)=O)cc1

[49, -1.01, 2.63, 2.34, -1.41, 1.08, 10.4, -0.6]

// for each compound in input: emit inhibition
1. CCn1c(-c2nonc2N)nc2c(C#CC(C)(C)O)nc(OCCNC)cc21
2. O=C1Nc2ccccc2/C1=C/Nc1ccc2[nH]c(=O)[nH]c2c1
3. O=S(=O)(CCOCc1ccc(-c2ccc3ncnc(Nc4ccc(OCc5cccc(F)c5)c(Cl)c4)c3c2)o1)c1ccccc1
4. N#Cc1c(NC(=O)c2ccccc2F)sc2c1CCCC2
5. NS(=O)(=O)c1cccc(-c2cc3ccncc3cc2OCc2ccccc2)c1
6. COc1cc(/C=N/Nc2ncnc3c2cnn3C(C)C)ccc1O
7. Nc1nccc(-c2c(-c3ccc(F)cc3)ncn2CCCN2CCOCC2)n1

[0.64, 4.65, 1.59, -2.62, 1.24, 1.37, 1.92]
